Would you mind telling me the reported % of binding of Clone #153 to human P-cadherin-Fc of each entry?
MEASURED_TARGET: T1, P-cadherin-ECD1-3-Fc protein (human P-cadherin-Fc) (human, UniProt P22223 108-440)
T1 construct: Construct was expressed with signal peptide and pro-peptide (PACE co-transfected to process the propeptide); not shown: hinge and CH2 and CH3 domains of human IgG1
T1 sequence (P22223 108-440): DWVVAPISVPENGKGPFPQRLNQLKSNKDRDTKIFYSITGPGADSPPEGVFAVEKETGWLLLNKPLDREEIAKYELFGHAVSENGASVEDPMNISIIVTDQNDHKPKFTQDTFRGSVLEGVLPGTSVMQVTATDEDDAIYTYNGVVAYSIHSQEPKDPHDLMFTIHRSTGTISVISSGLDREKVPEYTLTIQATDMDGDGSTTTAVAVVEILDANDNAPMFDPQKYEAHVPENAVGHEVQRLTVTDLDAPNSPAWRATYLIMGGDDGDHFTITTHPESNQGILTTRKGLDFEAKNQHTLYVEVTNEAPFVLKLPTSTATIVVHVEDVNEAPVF
EXPERIMENT: phage scFv ELISA, coated P-cadherin-ECD1-3-Fc
Quick note: give the figure in %, leave out the unit.

// query Consider the binder shown here: anti-P-cadherin scFv 153 alanine-mutant H2.7-Ala (scFv, V domains shown, scFv on phage) VH: EVQLVQSGAEVKKPGASVKVSCKASGYTFTSYGISWVRQAPGQGLEWMGWISAYNANTNYAQKLQGRVTMTTDTSTSTAYMELRSLRSDDTAVYYCATIDTANAFGIWGQGTMVTVSS VL: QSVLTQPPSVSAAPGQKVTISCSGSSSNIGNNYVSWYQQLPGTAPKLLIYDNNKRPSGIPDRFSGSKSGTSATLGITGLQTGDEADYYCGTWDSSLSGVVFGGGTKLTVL What is its recorded % of binding of Clone #153 to human P-cadherin-Fc?
// result 114

// query Then what about the binder anti-P-cadherin scFv 153 alanine-mutant H3.3-Ala (scFv, V domains shown, scFv on phage) VH: EVQLVQSGAEVKKPGASVKVSCKASGYTFTSYGISWVRQAPGQGLEWMGWISAYNGNTNYAQKLQGRVTMTTDTSTSTAYMELRSLRSDDTAVYYCATIDAANAFGIWGQGTMVTVSS VL: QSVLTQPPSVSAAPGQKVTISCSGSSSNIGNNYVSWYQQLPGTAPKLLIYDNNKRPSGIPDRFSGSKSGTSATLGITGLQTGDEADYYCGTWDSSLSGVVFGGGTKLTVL ?
// result 171

// query Try the binder anti-P-cadherin scFv 153 alanine-mutant H1.9-Ala (scFv, V domains shown, scFv on phage) VH: EVQLVQSGAEVKKPGASVKVSCKASGYTFTSYGASWVRQAPGQGLEWMGWISAYNGNTNYAQKLQGRVTMTTDTSTSTAYMELRSLRSDDTAVYYCATIDTANAFGIWGQGTMVTVSS VL: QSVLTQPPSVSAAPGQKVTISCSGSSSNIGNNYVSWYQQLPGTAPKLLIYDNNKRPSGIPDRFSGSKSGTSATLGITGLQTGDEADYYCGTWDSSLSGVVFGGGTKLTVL
// result 167
